Tested on: Plasmodium falciparum
assayProtocol: Resistance index, IC50 of Plasmodium falciparum W2/IC50 Plasmodium falciparum D6
Format: ADME, organism-based
statedConditions: in vitro
Label fulfilled for high-side Ratio IC50 (at or above 1) and not fulfilled for low-side Ratio IC50 (below it).

Here's what some known entries look like.
- structureString: "COc1ccc(C(=O)/C=C/c2cccc3ccccc23)cc1"
  labelClass: "fulfilled"
- structureString: "COc1cc(OC)cc(C(=O)/C=C/c2cccc3ccccc23)c1"
  labelClass: "not fulfilled"
- structureString: "COc1cc(OC)cc(C(=O)/C=C/c2ccc3ccccc3c2)c1"
  labelClass: "fulfilled"
- structureString: "COc1ccc(C(=O)/C=C/c2cccc3ccccc23)c(OC)c1"
  labelClass: "not fulfilled"
- structureString: "COc1ccc(F)cc1C(=O)/C=C/c1ccnc2ccccc12"
  labelClass: "not fulfilled"
- structureString: "COc1ccc(OC)c(C(=O)/C=C/c2ccnc3ccccc23)c1"
  labelClass: "fulfilled"
- structureString: "O=C(/C=C/c1ccnc2ccccc12)c1cc(Cl)ccc1Cl"
  labelClass: "fulfilled"
- structureString: "COc1ccc(C(=O)/C=C/c2ccnc3ccccc23)cc1"
  labelClass: "fulfilled"

Prompt line: I'd appreciate it if you could say whether COc1ccc(C(=O)/C=C/c2cccc3ccccc23)cc1OC has Ratio IC50 at least equal to 1.
Response line: not fulfilled

Prompt line: I'd appreciate it if you could say whether COc1ccc(C(=O)/C=C/c2cnc3ccccc3c2)cc1F has Ratio IC50 at least equal to 1.
Response line: fulfilled

Prompt line: I'd appreciate it if you could say whether O=C(/C=C/c1cnc2ccccc2c1)c1ccc(F)c(F)c1 has Ratio IC50 at least equal to 1.
Response line: not fulfilled

Prompt line: I'd appreciate it if you could say whether COc1ccc(F)cc1C(=O)/C=C/c1cnc2ccccc2c1 has Ratio IC50 at least equal to 1.
Response line: fulfilled
